System: KM12
method: NCI tumour cell line growth inhibition, 48 h
The source made the active and inactive calls. Rule as the data show it: active = GI50 up to about 1.1 µM and inactive = higher.
Reported GI50 values follow for various molecules
experimental readout: GI50

molecule | experimental readout | measured
O=c1[nH]c2cc([N+](=O)[O-])ccc2nc1/C(=N/Nc1ccccc1)C(O)c1ccccc1Cl (centres undefined) | GI50 | 27.8 µM (inactive)
NC(=O)[C@H](Cc1ccc(O)cc1)NC1=C(Cl)C(=O)c2c(O)ccc(O)c2C1=O | GI50 | 2.67 µM (inactive)
COc1ccc(N2C(=O)/C(=C/c3ccc(N(CCC#N)CCC#N)cc3C)N=C2c2cc([N+](=O)[O-])ccc2Cl)cc1 | GI50 | 6.52 µM (inactive)
COc1ccc(/N=C2\C(=N/c3ccc(OC)cc3)N(c3ccccc3[N+](=O)[O-])C(=S)N2c2ccc(OC)cc2)cc1 | GI50 | > 100 µM (inactive)
COc1nc2c(c(=O)n1C)N=C(c1ccccc1)[C@H](C(CC(=O)c1ccccc1)c1ccccc1)C(c1ccccc1)N2 (some centres undefined) | GI50 | 30.8 µM (inactive)
COc1ccc2c(c1)c1ccc3c(c1n2C)C(=O)C=CC3=O | GI50 | 18 µM (inactive)
COC(=O)C1CCC(=O)N1C(c1cc(OC)c(OC)c(OC)c1)c1cccc2ccccc12 (centres undefined) | GI50 | > 100 µM (inactive)
Nc1ncnc2c1ncn2CCCC(c1ccccc1)P(=O)(O)O (centres undefined) | GI50 | > 100 µM (inactive)
CCN(CC)CCOCCOCC1(c2ccc(Cl)c(Cl)c2)CCCCC1 | GI50 | 5.06 µM (inactive)

----------
Tested on: SK-MEL-5
method: NCI tumour cell line growth inhibition, 48 h
Calls of active or inactive are those of the source. Rule as the data show it: active = GI50 up to about 1.1 µM and inactive = higher.
Outcome codes: t (active), f (inactive)

compound | class assignment
CC(C)=CCC/C(C)=C/COc1c2ccoc2cc2oc(=O)ccc12 | f
CCOC(=O)CCC(C(=O)OCC)n1nc2ccc(Nc3c(C)[n+]([O-])c4cc(Cl)ccc4[n+]3[O-])cc2n1 (stereo not drawn) | f
CCCCCCCCC[C@@H]1C[C@@H]2CCC3C(C(=O)OCCCCNC(=O)OCc4ccccc4)=C(C)N=C(N1)N32 (stereo partly drawn) | f
O=S(=O)(N1CCCCN(S(=O)(=O)C(F)(F)F)CCCN(S(=O)(=O)C(F)(F)F)CCCN(S(=O)(=O)C(F)(F)F)CCCCN(S(=O)(=O)C(F)(F)F)CCCN(S(=O)(=O)C(F)(F)F)CCC1)C(F)(F)F | f
O=C(c1ccc(Cl)cc1Cl)N(C(=O)N1CCCCC1)c1ccccc1 | f
COc1ccc(C(Cc2cc(OC)c(OC)c(OC)c2)C(=O)O)cc1 (stereo not drawn) | f
CCC(/C=C/C1OC(=O)C=CC1C)=C\C(C)C/C=C/C(C)=C/C(C)C(=O)C(C)C(O)C(C)C/C(C)=C/C(=O)O (stereo not drawn) | t
CNC(=O)N(CCC#N)CCN(C(=O)N(C)C)c1ccccc1 | f

----------
Test system: KM-20L2
method: NCI tumour cell line growth inhibition, 48 h
Active and inactive are the calls of the source. No stated cut-off is given here; in the data, active = GI50 up to about 1.1 µM and inactive = higher.
Reported GI50 values follow for various molecules

molecule | target desc | GI50
CC(Cn1c2c3ccccc3ccc2c2oc(=O)c3ccccc3c21)N(C)C (centres undefined) | KM-20L2 | > 100 µM (inactive)
CCC(/C=C/C1OC(=O)C=CC1C)=C\C(C)C/C=C/C(C)=C/C(C)C(=O)C(C)C(O)C(C)C/C(C)=C/C(=O)O (centres undefined) | KM-20L2 | 4.13 µM (inactive)
N=C(N)NS(=O)(=O)c1ccc(NC(=O)c2cccc3c(Nc4ccc(S(=O)(=O)N=C(N)N)cc4)c4ccc(Cl)cc4nc23)cc1 | KM-20L2 | 74.8 µM (inactive)
CCCCCCCCCCCCCC(=O)NCC(OCC)OCC | KM-20L2 | > 100 µM (inactive)
CCOC(=O)C(=O)Nc1nc2ccc(C)cc2s1 | KM-20L2 | > 100 µM (inactive)
COC(=O)/C=C1/CCC(C(=O)OC)N1 (centres undefined) | KM-20L2 | > 100 µM (inactive)
CN1CCc2ccccc2C(C(=O)c2ccc3c(c2)OCO3)C1=O (centres undefined) | KM-20L2 | > 100 µM (inactive)
CC(=O)OCC1OC(OC2CC3C(C)(C)C(OC(C)=O)CC[C@]3(C)C3CCC45CC4(CC[C@H]5C(C)CC(O)C4OC4(C)C)[C@]23C)C(O)C(O)C1O (some centres undefined) | KM-20L2 | 1.85 µM (inactive)
C=C[C@@H](C)[C@]1(C(=O)OC)CCCC12OCCO2 | KM-20L2 | > 100 µM (inactive)
